# System Name: purified human IDO protein (Homo sapiens, UniProt P14902, E119G/P110S)
# Construct: 6-Histidine tag (C)
# Sequence (P14902 whole entry P110S/E119G): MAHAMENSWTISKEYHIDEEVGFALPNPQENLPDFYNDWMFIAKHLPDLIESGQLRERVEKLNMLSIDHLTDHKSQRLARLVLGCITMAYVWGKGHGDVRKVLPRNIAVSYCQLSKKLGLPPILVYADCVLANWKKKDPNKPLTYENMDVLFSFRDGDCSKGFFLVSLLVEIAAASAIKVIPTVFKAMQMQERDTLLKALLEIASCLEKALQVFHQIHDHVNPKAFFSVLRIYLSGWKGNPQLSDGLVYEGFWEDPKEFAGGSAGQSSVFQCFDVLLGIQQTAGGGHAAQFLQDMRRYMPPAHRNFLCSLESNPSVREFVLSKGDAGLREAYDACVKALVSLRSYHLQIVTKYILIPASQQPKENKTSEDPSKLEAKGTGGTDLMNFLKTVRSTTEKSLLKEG
# Assay Info: Enzymatic IDO assay (kynurenine formation, absorbance at 480 nm)
# Run Parameters: recombinant human IDO, 200 μM L-tryptophan, pH 6.5; reported in ranges
Documented IC50 across a set of compounds

[
  {
    "Structure Smiles String": "CC(C)(CCOc1ccccc1-c1c[nH]cn1)CCOc1ccccc1-c1cnc[nH]1",
    "Measured Property": "IC50",
    "Recorded Value": "< 20 µM"
  },
  {
    "Structure Smiles String": "O=[N+]([O-])c1ccccc1Cn1cncc1-c1ccccc1",
    "Measured Property": "IC50",
    "Recorded Value": "20 to 100 µM"
  },
  {
    "Structure Smiles String": "Clc1ccc(COc2c(Br)cccc2-c2c[nH]cn2)cc1",
    "Measured Property": "IC50",
    "Recorded Value": "20 to 100 µM"
  },
  {
    "Structure Smiles String": "CS(=O)(=O)Nc1ccccc1-c1c[nH]cn1",
    "Measured Property": "IC50",
    "Recorded Value": "100 to 500 µM"
  }
]

Would you kindly look at the next entry?
*Q* Given the compound Nc1ccccc1-c1cnc[nH]1 , what is its reported IC50?
*A* 20 to 100 µM

* * *

# System Name: purified human IDO protein (Homo sapiens, UniProt P14902, E119G/P110S)
# Construct: 6-Histidine tag (C)
# Assay Info: Enzymatic IDO assay (kynurenine formation, absorbance at 480 nm)
# Run Parameters: recombinant human IDO, 200 μM L-tryptophan, pH 6.5; reported in ranges
Measured Property: IC50

[
  {
    "Molecule": "NC(=O)C1CCC(=CCOc2ccccc2-c2c[nH]cn2)CC1 (stereo not shown) [Compound 168]",
    "Recorded Value": "< 20 µM"
  },
  {
    "Molecule": "CC(C)(CCNCc1ccccc1)CCOc1ccccc1-c1c[nH]cn1 [Compound 166]",
    "Recorded Value": "< 20 µM"
  }
]

Would you kindly look at the next entry?
*Q* Given the molecule Oc1ccc(Cn2cncc2-c2ccccc2)cc1 [Compound 125] , what is its reported IC50?
*A* 100 to 500 µM

* * *

# System Name: purified human IDO protein (Homo sapiens, UniProt P14902, E119G/P110S)
# Construct: 6-Histidine tag (C)
# Assay Info: Enzymatic IDO assay (kynurenine formation, absorbance at 480 nm)
# Run Parameters: recombinant human IDO, 200 μM L-tryptophan, pH 6.5; reported in ranges
Measured Property: IC50

As a guide, the following entries are already answered.
[
  {
    "Compound": "Cc1ccccc1Cn1cncc1-c1ccccc1",
    "Measured Property": "IC50",
    "Recorded Value": "20 to 100 µM"
  },
  {
    "Compound": "c1ccc(Cc2nc[nH]c2-c2ccccc2)cc1",
    "Measured Property": "IC50",
    "Recorded Value": "100 to 500 µM"
  },
  {
    "Compound": "N#CC1CCC(=CCOc2ccccc2-c2c[nH]cn2)CC1 (stereo not drawn)",
    "Measured Property": "IC50",
    "Recorded Value": "< 20 µM"
  },
  {
    "Compound": "O=[N+]([O-])c1ccc(Cn2cncc2-c2ccccc2)cc1",
    "Measured Property": "IC50",
    "Recorded Value": "20 to 100 µM"
  },
  {
    "Compound": "CC(=O)NCCC(C)(C)CCOc1ccccc1-c1c[nH]cn1",
    "Measured Property": "IC50",
    "Recorded Value": "< 20 µM"
  }
]

*Q* Param readout = IC50; param system = purified human IDO protein (Homo sapiens, UniProt P14902, E119G/P110S); param query = Sc1ccccc1-c1c[nH]cn1 ; response: value
*A* < 20 µM

*Q* Input Cc1ccccc1COc1ccccc1-c1c[nH]cn1
*A* < 20 µM

*Q* Input Cc1ccc(COc2ccccc2-c2c[nH]cn2)cc1
*A* 20 to 100 µM

*Q* Input CC(=O)NC1CCC(=CCOc2ccccc2-c2c[nH]cn2)CC1 (stereo not drawn)
*A* < 20 µM

*Q* Input CC(=O)NCc1ccc(COc2ccccc2-c2c[nH]cn2)cc1
*A* 20 to 100 µM

*Q* Input N#Cc1ccc(COc2ccccc2-c2c[nH]cn2)cc1
*A* 20 to 100 µM

*Q* Input N#Cc1cccc(COc2ccccc2-c2c[nH]cn2)c1
*A* 20 to 100 µM

*Q* Input CCOC(=O)c1ccccc1-c1c[nH]cn1 [Compound 80, ethyl 2-(1H-imidazol-4-yl)benzoate]
*A* 20 to 100 µM

*Q* Input NCCn1cncc1-c1ccccc1
*A* 100 to 500 µM

*Q* Input Clc1ccccc1COc1ccccc1-c1c[nH]cn1
*A* 20 to 100 µM

*Q* Input COc1ccccc1-c1cncn1CCC(C)(C)C
*A* 20 to 100 µM

*Q* Input CC(=O)Nc1cccc(CCOc2ccccc2-c2c[nH]cn2)c1
*A* < 20 µM

*Q* Input c1cnc(NCCOc2ccccc2-c2cnc[nH]2)nc1
*A* 100 to 500 µM

* * *

# System Name: purified human IDO protein (Homo sapiens, UniProt P14902, E119G/P110S)
# Construct: 6-Histidine tag (C); made in house; host or cells: E. coli M15(pREP4) transformed with pQE70-hIDO
# Assay Info: Enzymatic IDO assay (kynurenine formation, absorbance at 480 nm)
# Type: biochemical
# Run Parameters: recombinant human IDO, 200 μM L-tryptophan, pH 6.5; reported in ranges
Measured Property: IC50

As a guide, the following entries are already answered.
[
  {
    "Molecule": "CC(=O)Nc1ccc(CCOc2ccccc2-c2c[nH]cn2)cc1",
    "System Name": "purified human IDO protein (Homo sapiens, UniProt P14902, E119G/P110S)",
    "IC50": "< 20 µM"
  },
  {
    "Molecule": "Oc1cccc(OCc2ccc(Cl)cc2)c1-c1cnc[nH]1",
    "System Name": "purified human IDO protein (Homo sapiens, UniProt P14902, E119G/P110S)",
    "IC50": "20 to 100 µM"
  },
  {
    "Molecule": "COc1cccc(Cn2cncc2-c2ccccc2)c1",
    "System Name": "purified human IDO protein (Homo sapiens, UniProt P14902, E119G/P110S)",
    "IC50": "20 to 100 µM"
  }
]

*Q* Given the molecule Cc1cccc(Cn2cncc2-c2ccccc2)c1 , what is its reported IC50?
*A* 20 to 100 µM

*Q* Input COC(=O)c1cccc(-c2c[nH]cn2)c1 [Compound 112, methyl 3-(1H-imidazol-4-yl)benzoate]
*A* 100 to 500 µM

*Q* Input N#Cc1cccc(-c2c[nH]cn2)c1
*A* 20 to 100 µM

*Q* Input N#Cc1cccc(Cn2cncc2-c2ccccc2)c1
*A* 20 to 100 µM

* * *

# System Name: purified human IDO protein (Homo sapiens, UniProt P14902, E119G/P110S)
# Construct: 6-Histidine tag (C)
# Assay Info: Enzymatic IDO assay (kynurenine formation, absorbance at 480 nm)
# Run Parameters: recombinant human IDO, 200 μM L-tryptophan, pH 6.5; reported in ranges
# Procedure: The inhibitors were initially diluted in DMSO at 100 mM and were diluted in potassium phosphate 50 mM, added to the reaction mixture at final concentrations raging from 1 mM to 5 nM and preincubated with the enzyme for 5 min at 25° C. The reaction was started by addition of L-tryptophan to 200 μM and incubated 15 min at 37° C. […] The reaction was incubated 10 min at 25° C. and read at 480 nm in a spectrophotometer. […]
Where a name gives a salt, the structure may show the parent alone.
Documented IC50 across a set of compounds

As a guide, the following entries are already answered.
[
  {
    "Compound": "Oc1ccc(CCOc2ccccc2-c2c[nH]cn2)cc1",
    "IC50": "< 20 µM"
  },
  {
    "Compound": "CC(C)(CCOc1ccccc1-c1c[nH]cn1)CCC(=O)O [Compound 83, hydrochloride]",
    "IC50": "20 to 100 µM"
  },
  {
    "Compound": "COc1ccc(Cn2cncc2-c2ccccc2)cc1",
    "IC50": "20 to 100 µM"
  },
  {
    "Compound": "Brc1cccc(-c2cnc[nH]2)c1",
    "IC50": "< 20 µM"
  },
  {
    "Compound": "CC(=O)NCCCCn1cncc1-c1ccccc1",
    "IC50": "100 to 500 µM"
  },
  {
    "Compound": "CC(C)(C)OC(=O)NCCn1cncc1-c1ccccc1",
    "IC50": "100 to 500 µM"
  },
  {
    "Compound": "O=[N+]([O-])c1cccc(Cn2cncc2-c2ccccc2)c1",
    "IC50": "20 to 100 µM"
  },
  {
    "Compound": "CC(C)(C)CCn1cncc1-c1ccccc1",
    "IC50": "< 20 µM"
  }
]

Would you kindly look at the next entry?
*Q* Param readout = IC50; param system = purified human IDO protein (Homo sapiens, UniProt P14902, E119G/P110S); param query = Oc1cccc(Cn2cncc2-c2ccccc2)c1 ; response: value
*A* < 20 µM

Attribution: patent US9174942B2
